Molecular target: Proto-oncogene tyrosine-protein kinase receptor Ret (Homo sapiens, UniProt P07949)
Sequence (P07949 whole entry): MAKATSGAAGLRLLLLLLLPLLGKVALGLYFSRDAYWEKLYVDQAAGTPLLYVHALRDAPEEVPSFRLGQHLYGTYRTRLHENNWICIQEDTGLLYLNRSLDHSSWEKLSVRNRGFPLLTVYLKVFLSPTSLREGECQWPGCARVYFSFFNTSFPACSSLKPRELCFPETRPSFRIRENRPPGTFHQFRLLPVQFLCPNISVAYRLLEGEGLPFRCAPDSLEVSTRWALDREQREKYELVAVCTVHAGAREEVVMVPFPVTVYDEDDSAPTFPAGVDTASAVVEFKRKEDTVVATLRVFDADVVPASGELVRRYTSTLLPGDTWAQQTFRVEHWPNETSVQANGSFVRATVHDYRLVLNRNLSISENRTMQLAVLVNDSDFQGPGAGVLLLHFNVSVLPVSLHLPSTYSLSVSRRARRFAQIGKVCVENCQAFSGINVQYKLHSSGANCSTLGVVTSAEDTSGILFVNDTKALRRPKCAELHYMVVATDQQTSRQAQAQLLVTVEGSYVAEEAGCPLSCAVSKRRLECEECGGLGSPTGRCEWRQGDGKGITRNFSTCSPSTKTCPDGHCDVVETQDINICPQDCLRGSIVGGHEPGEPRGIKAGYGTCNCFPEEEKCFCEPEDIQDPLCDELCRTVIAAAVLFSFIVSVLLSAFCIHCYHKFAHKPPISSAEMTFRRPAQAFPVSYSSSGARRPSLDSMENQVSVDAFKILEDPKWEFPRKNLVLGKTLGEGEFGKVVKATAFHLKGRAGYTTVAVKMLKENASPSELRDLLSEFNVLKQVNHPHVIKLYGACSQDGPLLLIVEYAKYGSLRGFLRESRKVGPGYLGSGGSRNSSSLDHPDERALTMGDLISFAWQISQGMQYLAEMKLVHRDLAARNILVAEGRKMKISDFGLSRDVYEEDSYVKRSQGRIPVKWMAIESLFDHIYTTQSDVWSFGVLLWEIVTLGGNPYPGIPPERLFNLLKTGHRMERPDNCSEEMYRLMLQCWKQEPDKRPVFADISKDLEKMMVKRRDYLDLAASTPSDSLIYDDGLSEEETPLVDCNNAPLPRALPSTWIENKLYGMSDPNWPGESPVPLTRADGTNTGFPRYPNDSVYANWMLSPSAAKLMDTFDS
pIC50: −log10 of the molar value.
Measured Property: pIC50

pIC50 on Proto-oncogene tyrosine-protein kinase receptor Ret (Homo sapiens, UniProt P07949) for O=C(Cc1ccc(-c2ccc3nccn3c2)cc1)Nc1cccc(Br)c1 is < 4.00
